GI50 tested on HCT-15 colon: recorded values

molecule	GI50
O=c1c(OC/C(=N/O)c2ccccc2)c(-c2ccccc2)oc2ccccc12	17.1 µM
CCOC(=O)/C=C/c1ccc(C(=O)OCC)[nH]1	3.11 µM
NC(N)=N/N=C/c1c(-c2cc(Cl)sc2Cl)nc2n1CCS2	9 µM
Cc1cc(O)cc(C)c1/C=C/c1cncc(C(=O)N(C)C)c1	> 25 µM
C=C(CNCCO)[C@@H]1CC[C@]2(CO)CC[C@]3(C)[C@H](CC[C@@H]4[C@@]5(C)CCC(NCCc6ccc(O)cc6)C(C)(C)[C@@H]5CC[C@]43C)[C@@H]12 (some centres not stated)	1.36 µM
O=C1NC(=O)C(c2ccccc2Cl)=C1Nc1cccc(O)c1	2.47 µM
CC1=CC[C@@H]2C(C)(C)[C@@H](O)CC[C@@]2(C)[C@@H]1COc1ccc2ccc(=O)oc2c1	3.6 µM

====

GI50 tested on UO-31 renal: recorded values
readout-name: GI50

> print(dat)
                                        smi  readout.name   result
1                    CCN(CC)C(=S)SSC1CCCCC1          GI50  12.1 µM
2  CCOC(=O)/C(C1=CC(=O)C(=O)c2ccccc21)=C(/C)NCc1ccccc1          GI50  3.35 µM
3  Cc1cc(O)cc(C)c1/C=C/c1cncc(C(=O)N(C)C)c1          GI50  > 25 µM

====

# Tested on: SNB-75 CNS
# test: NCI tumour cell line growth inhibition, 48 h
// reported TGI per item

molecule	target-entity	TGI
COc1ccc(N=Cc2ccc(N(CCC#N)CCC#N)cc2)cc1	SNB-75 CNS	> 100 µM
CC(C)(C)N=CN1CCC(C(c2ccccc2)c2ccccc2)CC1	SNB-75 CNS	> 100 µM
Nc1ncnc2c1ncn2C1OC(C(=O)O)C(O)C1O (centres undefined)	SNB-75 CNS	> 100 µM
Cc1cc2occ(C)c(=O)c2c2c1OC(C)(C)S2	SNB-75 CNS	> 100 µM
CCCCCCCCCCCCC(SCCNC(=O)CCNC(=O)C(O)C(C)(C)COP(=O)(O)OP(=O)(O)OCC1OC(n2cnc3c(N)ncnc32)C(O)C1OP(=O)(O)O)C(=O)NCC(N)=O (centres undefined)	SNB-75 CNS	9.04 µM
O=[N+]([O-])C(=C(NCc1ccccc1)NCc1ccccc1)C(Cl)=C(Cl)Cl	SNB-75 CNS	43.5 µM
COc1ccc(CNc2nc3ccccc3nc2-c2cccs2)cc1	SNB-75 CNS	> 100 µM
N#C/C(=C(\O)C(=O)O)c1ccc(-c2cccc3ccccc23)cc1	SNB-75 CNS	> 100 µM
Cc1nnc2c3c(-c4ccccc4)c(-c4ccccc4)oc3nc(N(C)C)n12	SNB-75 CNS	72.4 µM

====

# Test system: BT-549 breast
# test: NCI tumour cell line growth inhibition, 48 h
Decision: TGI compared against 6 µM; not below it gives 1 (yes), below it gives 0 (no).

> print(dat)
                                    molecule  target.entity    class
 1  c1ccc2c(NCCCCCCCCNc3c4ccccc4nc4ccccc34)c3ccccc3nc2c1  BT-549 breast   0 (no)
 2       O=S1(=O)c2ccccc2N2CCCc3cc(Cl)cc1c32  BT-549 breast  1 (yes)
 3  OC1CCC(Oc2cccc3cnc(Nc4ccc5nc[nH]c5c4)nc23)CC1 (stereo not drawn)  BT-549 breast   0 (no)
 4  Nc1ncnc2c1ncn2C1OC(C(=O)O)C(O)C1O (stereo not drawn)  BT-549 breast  1 (yes)
 5  O=C(N/N=C/c1ccc(F)cc1)c1[nH]c2ccc(I)cc2c1-c1ccccc1  BT-549 breast  1 (yes)
 6   CCOC(=O)/C(=C\c1ccc(CO)o1)P(=O)(OCC)OCC  BT-549 breast  1 (yes)
 7  COC1C(O)=C2C(=O)OC(C)(O)/C=C/C=C\C=C/C=C/C(c3ccccc3)NC(=O)/C=C/C=C/C=C/C=C/C2(C)C1O (stereo not drawn)  BT-549 breast   0 (no)
 8  O=C(c1cccs1)N(C(=O)N1CCC(c2ccccc2)CC1)c1ccccc1  BT-549 breast  1 (yes)
 9  Clc1ccc(OCc2nnc(CCCCCCCCc3nnc(COc4ccc(Cl)cc4Cl)o3)o2)c(Cl)c1  BT-549 breast  1 (yes)
10  O=C(/C=C/c1ccc([N+](=O)[O-])o1)NNC(=O)c1cc2ccccc2cc1O  BT-549 breast   0 (no)
11    Fc1cccc2nc(-c3ccccc3)cc(OCc3ccccc3)c12  BT-549 breast  1 (yes)
12    COc1ccc(N=Cc2ccc(N(CCC#N)CCC#N)cc2)cc1  BT-549 breast  1 (yes)
